Data provenance is the supplement of paper PMC3545927.

Molecular target: furin, P09958;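 note: purified furin at 1:10 enzyme:substrate in 50 mM HEPES pH 7.5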
Sequence (P09958 whole entry): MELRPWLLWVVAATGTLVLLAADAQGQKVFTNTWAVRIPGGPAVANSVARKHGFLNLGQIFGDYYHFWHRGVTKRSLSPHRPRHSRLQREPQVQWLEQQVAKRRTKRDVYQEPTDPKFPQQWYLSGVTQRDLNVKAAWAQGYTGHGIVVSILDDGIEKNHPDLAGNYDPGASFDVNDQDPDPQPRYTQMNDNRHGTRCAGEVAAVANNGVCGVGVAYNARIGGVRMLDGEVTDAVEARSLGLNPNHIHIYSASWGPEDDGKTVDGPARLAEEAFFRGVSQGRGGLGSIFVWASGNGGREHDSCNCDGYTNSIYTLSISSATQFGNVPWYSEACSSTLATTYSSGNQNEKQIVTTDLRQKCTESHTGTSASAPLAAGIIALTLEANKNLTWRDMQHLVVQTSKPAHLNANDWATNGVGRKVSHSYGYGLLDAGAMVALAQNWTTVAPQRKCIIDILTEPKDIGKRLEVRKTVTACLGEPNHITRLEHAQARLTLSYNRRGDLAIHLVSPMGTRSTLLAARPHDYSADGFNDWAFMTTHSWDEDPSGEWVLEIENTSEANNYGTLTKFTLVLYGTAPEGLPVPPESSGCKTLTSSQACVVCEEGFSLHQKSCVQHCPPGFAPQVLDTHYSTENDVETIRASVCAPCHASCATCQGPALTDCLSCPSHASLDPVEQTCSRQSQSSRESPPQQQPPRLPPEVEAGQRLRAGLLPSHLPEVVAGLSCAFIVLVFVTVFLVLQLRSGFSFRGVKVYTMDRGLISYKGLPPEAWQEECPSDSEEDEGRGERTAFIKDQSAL
Assay: furin cleavage Z-score vs untreated control; higher = more cleavage, active = 3.5 or more, inactive = 1 or less, 8 variable residues between constant flanks
Settings: 7.5 min
The other results are listed elsewhere or left out. The true hit rate is not given.
Permitted responses: 1 = active, -1 = inactive

Use the examples below as a reference point.
record_sequence="CANCTTPCSGAGNASASA [HC1961]" category=-1
record_sequence="CAESGRENRSAGNASASA [FS-764]" category=-1
record_sequence="CAVVICSMSYAGNASASA [HC2024]" category=-1

Data request: Tell me the recorded outcome of this test for CAAAQLAAPGAGNASASA [HC1069] .
Data returned: -1

Data request: Tell me the recorded outcome of this test for CAHSERKKRRAGNASASA [FS-249] .
Data returned: 1

Data request: Tell me the recorded outcome of this test for CAEQPCHRPSAGNASASA [HC2342] .
Data returned: -1

Data request: Tell me the recorded outcome of this test for CARVARFVTHAGNASASA [FS-1798] .
Data returned: -1

Data request: Tell me the recorded outcome of this test for CAQTRGLLGCAGNASASA [HC678] .
Data returned: -1

Data request: Tell me the recorded outcome of this test for CAEPEPDVAVAGNASASA [HC1242] .
Data returned: -1

Data request: Tell me the recorded outcome of this test for CAQWQVLPCSAGNASASA [HC496] .
Data returned: -1

Data request: Tell me the recorded outcome of this test for CALSSRHSRSAGNASASA [FS-688] .
Data returned: 1

Data request: Tell me the recorded outcome of this test for CAEAPCHRPSAGNASASA [HC2323] .
Data returned: -1

Data request: Tell me the recorded outcome of this test for CARVARDVAVAGNASASA [FS-3113] .
Data returned: 1

Data request: Tell me the recorded outcome of this test for CAGCNCSIYPAGNASASA [HC312] .
Data returned: -1
